Molecular target: CD36 expressed on Bowes melanoma cells stably transfected with human CD36 cDNA (human, UniProt P16671 1-472)
Sequence (P16671 whole entry): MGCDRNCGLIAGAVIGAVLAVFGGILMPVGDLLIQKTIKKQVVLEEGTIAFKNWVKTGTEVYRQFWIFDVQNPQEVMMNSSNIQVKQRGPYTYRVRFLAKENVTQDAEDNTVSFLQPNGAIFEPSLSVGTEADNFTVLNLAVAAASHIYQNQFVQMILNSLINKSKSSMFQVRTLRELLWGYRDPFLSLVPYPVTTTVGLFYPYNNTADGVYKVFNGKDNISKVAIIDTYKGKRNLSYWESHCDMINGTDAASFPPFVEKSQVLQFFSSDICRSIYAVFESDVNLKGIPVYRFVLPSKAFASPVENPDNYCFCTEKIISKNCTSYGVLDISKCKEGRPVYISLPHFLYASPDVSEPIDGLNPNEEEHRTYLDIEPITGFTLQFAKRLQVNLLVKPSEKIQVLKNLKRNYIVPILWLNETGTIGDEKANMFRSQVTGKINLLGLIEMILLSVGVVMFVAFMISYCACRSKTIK
Test: radioligand binding
parameter: IC50
Note: state the figure and append the unit.

Qu. Report IC50 for SPWDIASVTAGGGVQKRSK [TSP-1 peptide Mal III] please.
Ans. 8.6 µM

Qu. Report IC50 for NGVQYRN [TSP-1 peptide Col overlap] please.
Ans. 30.1 µM
